- CONDITION_CONTEXT: in methyl acetate, 323.05 K

STRUCTURE_NOTATION: Cc1c(N(C)CS(=O)(=O)[O-])c(=O)n(-c2ccccc2)n1C.O.[Na+]
solubility (mole fraction): 0.0003

* * *

- CONDITION_CONTEXT: in methanol, 293.15 K

STRUCTURE_NOTATION: Cc1c(N(C)CS(=O)(=O)[O-])c(=O)n(-c2ccccc2)n1C.O.[Na+]
solubility (mole fraction): 0.0278

* * *

- CONDITION_CONTEXT: in n-butanol, 327.95 K

STRUCTURE_NOTATION: Cc1c(N(C)CS(=O)(=O)[O-])c(=O)n(-c2ccccc2)n1C.O.[Na+]
solubility (mole fraction): 0.0019

* * *

- CONDITION_CONTEXT: in acetone, 293.15 K

STRUCTURE_NOTATION: Cc1c(N(C)CS(=O)(=O)[O-])c(=O)n(-c2ccccc2)n1C.O.[Na+]
solubility (mole fraction): 0.0001

* * *

- CONDITION_CONTEXT: in ethanol, 293.15 K

STRUCTURE_NOTATION: Cc1c(N(C)CS(=O)(=O)[O-])c(=O)n(-c2ccccc2)n1C.O.[Na+]
solubility (mole fraction): 0.0032

* * *

- CONDITION_CONTEXT: in n-propanol, 313.05 K

STRUCTURE_NOTATION: Cc1c(N(C)CS(=O)(=O)[O-])c(=O)n(-c2ccccc2)n1C.O.[Na+]
solubility (mole fraction): 0.0023

* * *

- CONDITION_CONTEXT: in ethyl acetate, 332.85 K
PROPERTY: solubility (mole fraction)

STRUCTURE_NOTATION: Cc1c(N(C)CS(=O)(=O)[O-])c(=O)n(-c2ccccc2)n1C.O.[Na+]
PROPERTY: solubility (mole fraction)
OBS_VALUE: 0.0005

* * *

- CONDITION_CONTEXT: in isopropanol, 293.15 K
PROPERTY: solubility (mole fraction)

STRUCTURE_NOTATION: Cc1c(N(C)CS(=O)(=O)[O-])c(=O)n(-c2ccccc2)n1C.O.[Na+]
OBS_VALUE: 0.0003

* * *

- CONDITION_CONTEXT: in methyl acetate, 318.05 K
PROPERTY: solubility (mole fraction)

STRUCTURE_NOTATION: Cc1c(N(C)CS(=O)(=O)[O-])c(=O)n(-c2ccccc2)n1C.O.[Na+]
PROPERTY: solubility (mole fraction)
OBS_VALUE: 0.0002

* * *

- CONDITION_CONTEXT: in water, 308.05 K

STRUCTURE_NOTATION: Cc1c(N(C)CS(=O)(=O)[O-])c(=O)n(-c2ccccc2)n1C.O.[Na+]
solubility (mole fraction): 0.0656

* * *

- CONDITION_CONTEXT: in ethyl acetate, 323.05 K
PROPERTY: solubility (mole fraction)

STRUCTURE_NOTATION: Cc1c(N(C)CS(=O)(=O)[O-])c(=O)n(-c2ccccc2)n1C.O.[Na+]
PROPERTY: solubility (mole fraction)
OBS_VALUE: 0.0003

* * *

- CONDITION_CONTEXT: in sec-butanol, 313.05 K
PROPERTY: solubility (mole fraction)

STRUCTURE_NOTATION: Cc1c(N(C)CS(=O)(=O)[O-])c(=O)n(-c2ccccc2)n1C.O.[Na+]
PROPERTY: solubility (mole fraction)
OBS_VALUE: 0.0007
